experiment: Retention time of the compound by HPLC-SPE-NMR analysis; format: physicochemical
parameter: Retention_time (min)

Example cases with answers are listed next.
1. O=c1cc(-c2ccc(O)c(O)c2)oc2c([C@@H]3O[C@H](CO)[C@@H](O)[C@H](O)[C@H]3O)c(O)cc(O)c12    16.6
2. O=c1cc(-c2ccc(O)cc2)oc2cc(O)c([C@@H]3O[C@H](CO)[C@@H](O)[C@H](O)[C@H]3O)c(O)c12    19.5

1 = O=C(/C=C/c1ccc(O)cc1)OC[C@H]1O[C@@H](Oc2cc(O)c3c(=O)cc(-c4ccc(O)cc4)oc3c2)[C@H](O)[C@@H](O)[C@@H]1O
2 = O=c1cc(-c2ccc(O)cc2)oc2cc(O[C@@H]3O[C@H](CO)[C@@H](O)[C@H](O)[C@H]3O)cc(O)c12
Incoming: Please state the entry with greater Retention_time among 1 and 2 . When you have decided, please share the label of that item.
Outgoing: 1

###

assay: Retention time of the compound by HPLC-SPE-NMR analysis; assay type: physicochemical
parameter: Retention_time (min)

1) O=C(/C=C\c1ccccc1)OC[C@H]1O[C@@H](Oc2cc(O)c3c(=O)cc(-c4ccc(O)cc4)oc3c2)[C@H](O)[C@@H](O)[C@@H]1O    57.4
2) O=C(/C=C/c1ccc(O)cc1)O[C@@H]1[C@@H](O)[C@H](O)[C@@H](CO)O[C@H]1c1c(O)cc2oc(-c3ccc(O)c(O)c3)cc(=O)c2c1O    29.9
3) O=C(/C=C/c1ccc(O)cc1)O[C@@H]1[C@@H](O)[C@H](O)[C@@H](CO)O[C@H]1c1c(O)cc2oc(-c3ccc(O)cc3)cc(=O)c2c1O    36.5
4) O=C(/C=C\c1ccc(O)cc1)OC[C@H]1O[C@@H](Oc2cc(O)c3c(=O)cc(-c4ccc(O)cc4)oc3c2)[C@H](O)[C@@H](O)[C@@H]1O    44.9

1 = O=C(/C=C/c1ccccc1)OC[C@H]1O[C@@H](Oc2cc(O)c3c(=O)cc(-c4ccc(O)c(O)c4)oc3c2)[C@H](O)[C@@H](O)[C@@H]1O
2 = COc1cc(/C=C/C(=O)O[C@@H]2[C@@H](O)[C@H](O)[C@@H](CO)O[C@H]2c2c(O)cc3oc(-c4ccc(O)c(O)c4)cc(=O)c3c2O)cc(OC)c1O
Incoming: Hi team, can someone confirm which has the larger Retention_time: 1 or 2 ? Thanks. Write down the label attached to your selection.
Outgoing: 1

###

assay: Retention time of the compound by HPLC-SPE-NMR analysis; format: physicochemical
parameter: Retention_time (min)

Example cases with answers are listed next.
1) O=c1cc(-c2ccc(O)cc2)oc2cc(O)cc(O)c12    50.2
2) O=c1cc(-c2ccc(O)c(O)c2)oc2cc(O[C@@H]3O[C@H](CO)[C@@H](O)[C@H](O)[C@H]3O)cc(O)c12    20.7
3) COc1cc(-c2cc(=O)c3c(O)cc(O)cc3o2)ccc1O    51.4

P = COc1cc(/C=C/C(=O)OC[C@H]2O[C@@H](Oc3cc(O)c4c(=O)cc(-c5ccc(O)cc5)oc4c3)[C@H](O)[C@@H](O)[C@@H]2O)ccc1O
Q = O=c1cc(-c2ccc(O)c(O)c2)oc2cc(O)c([C@@H]3O[C@H](CO)[C@@H](O)[C@H](O)[C@H]3O)c(O)c12
Incoming: When their Retention_time values are compared, which is larger, P or Q ? Select an item and report its label.
Outgoing: P
